target: Substance-P receptor (Homo sapiens); test: Ability to displace [125I]-substance P from hNK1 receptor in chinese hamster ovarian (CHO) cells
Sequence (P25103 whole entry): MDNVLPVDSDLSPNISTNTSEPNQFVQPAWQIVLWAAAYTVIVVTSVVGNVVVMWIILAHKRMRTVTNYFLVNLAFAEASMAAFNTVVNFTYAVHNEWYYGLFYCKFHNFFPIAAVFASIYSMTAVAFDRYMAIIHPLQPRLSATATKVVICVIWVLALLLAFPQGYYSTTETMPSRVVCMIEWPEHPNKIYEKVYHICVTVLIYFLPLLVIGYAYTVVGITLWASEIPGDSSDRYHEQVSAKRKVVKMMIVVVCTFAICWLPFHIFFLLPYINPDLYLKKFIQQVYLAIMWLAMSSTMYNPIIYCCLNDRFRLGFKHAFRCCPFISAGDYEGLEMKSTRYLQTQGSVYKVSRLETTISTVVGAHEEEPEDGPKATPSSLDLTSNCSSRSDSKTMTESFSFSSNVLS
pIC50: −log10 of the molar value.
Threshold check on pIC50: at or above 7 gives satisfied, strictly below gives not satisfied.

[[record]]
compound = "CS(=O)(=O)N1CC2(CCN(C(=O)[C@H](COCc3ccccc3Cl)NCc3ccc(Cl)c(Cl)c3)CC2)c2ccccc21"
assayed_system = "Substance-P receptor (Homo sapiens)"
assigned_category = "satisfied"

[[record]]
compound = "CS(=O)(=O)N1CC2(CCN(C(=O)[C@H](COCc3cccc(Cl)c3)NCc3ccc(Cl)c(Cl)c3)CC2)c2ccccc21"
assayed_system = "Substance-P receptor (Homo sapiens)"
assigned_category = "satisfied"

[[record]]
compound = "CS(=O)(=O)N1CC2(CCN(C(=O)[C@H](COCc3ccc(Cl)cc3)NCc3ccc(Cl)c(Cl)c3)CC2)c2ccccc21"
assayed_system = "Substance-P receptor (Homo sapiens)"
assigned_category = "satisfied"

[[record]]
compound = "CS(=O)(=O)N1CC2(CCN(C(=O)C(COCc3ccccc3)NCc3ccccc3Cl)CC2)c2ccccc21 (stereo unspecified)"
assayed_system = "Substance-P receptor (Homo sapiens)"
assigned_category = "not satisfied"

[[record]]
compound = "CS(=O)(=O)N1CC2(CCN(C(=O)[C@H](COCc3ccc(Cl)cc3)NCc3ccccc3)CC2)c2ccccc21"
assayed_system = "Substance-P receptor (Homo sapiens)"
assigned_category = "satisfied"

[[record]]
compound = "CS(=O)(=O)N1CC2(CCN(C(=O)C(CNCc3ccc(Cl)c(Cl)c3)NCc3ccccc3)CC2)c2ccccc21 (stereo unspecified)"
assayed_system = "Substance-P receptor (Homo sapiens)"
assigned_category = "satisfied"

[[record]]
compound = "CS(=O)(=O)N1CC2(CCN(C(=O)C(N)COCc3ccccc3)CC2)c2ccccc21 (stereo unspecified)"
assayed_system = "Substance-P receptor (Homo sapiens)"
assigned_category = "not satisfied"

[[record]]
compound = "CS(=O)(=O)N1CC2(CCN(C(=O)C(COCc3ccccc3)NC(=O)c3ccc(Cl)c(Cl)c3)CC2)c2ccccc21 (stereo unspecified)"
assayed_system = "Substance-P receptor (Homo sapiens)"
assigned_category = "not satisfied"

[[record]]
compound = "CS(=O)(=O)N1CC2(CCN(C(=O)C(CCCc3ccc(Cl)c(Cl)c3)NCc3ccccc3)CC2)c2ccccc21 (stereo unspecified)"
assayed_system = "Substance-P receptor (Homo sapiens)"
assigned_category = "satisfied"

[[record]]
compound = "CS(=O)(=O)N1CC2(CCN(C(=O)[C@@H](COCc3ccccc3)NCc3ccc(Cl)c(Cl)c3)CC2)c2ccccc21"
assayed_system = "Substance-P receptor (Homo sapiens)"
assigned_category = "satisfied"

[[record]]
compound = "COc1ccc(CNC(COCc2ccccc2)C(=O)N2CCC3(CC2)CN(S(C)(=O)=O)c2ccccc23)cc1 (stereo unspecified)"
assayed_system = "Substance-P receptor (Homo sapiens)"
assigned_category = "satisfied"

[[record]]
compound = "CS(=O)(=O)N1CC2(CCN(C[C@H](COCc3ccc(Cl)c(Cl)c3)NCc3ccccc3)CC2)c2ccccc21"
assayed_system = "Substance-P receptor (Homo sapiens)"
assigned_category = "not satisfied"

[[record]]
compound = "CS(=O)(=O)N1CC2(CCN(C(=O)[C@H](COCc3ccccc3)NCc3ccc(Cl)c(Cl)c3)CC2)c2ccccc21"
assayed_system = "Substance-P receptor (Homo sapiens)"
assigned_category = "satisfied"

[[record]]
compound = "CN(Cc1ccc(Cl)c(Cl)c1)CC(NCc1ccccc1)C(=O)N1CCC2(CC1)CN(S(C)(=O)=O)c1ccccc12 (stereo unspecified)"
assayed_system = "Substance-P receptor (Homo sapiens)"
assigned_category = "satisfied"

